Origin of measurements: patent US20260174875A1

- system: T1, human amylin-3(a) receptor (human, UniProt P30988 25-474; O60896 24-148)
- T1 sequence (looked up) 1: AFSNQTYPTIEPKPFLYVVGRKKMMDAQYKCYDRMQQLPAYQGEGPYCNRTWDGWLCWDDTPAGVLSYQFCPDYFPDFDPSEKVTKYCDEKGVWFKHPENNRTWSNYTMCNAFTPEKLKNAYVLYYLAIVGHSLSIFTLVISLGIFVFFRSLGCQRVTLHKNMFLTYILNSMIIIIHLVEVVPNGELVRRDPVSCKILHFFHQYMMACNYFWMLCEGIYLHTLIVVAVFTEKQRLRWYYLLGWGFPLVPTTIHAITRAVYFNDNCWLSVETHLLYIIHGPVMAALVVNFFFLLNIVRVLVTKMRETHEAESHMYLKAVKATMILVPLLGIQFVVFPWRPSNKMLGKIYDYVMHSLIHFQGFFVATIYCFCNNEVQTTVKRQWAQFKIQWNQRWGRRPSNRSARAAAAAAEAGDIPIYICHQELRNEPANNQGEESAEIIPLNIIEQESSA
- T1 sequence (looked up) 2: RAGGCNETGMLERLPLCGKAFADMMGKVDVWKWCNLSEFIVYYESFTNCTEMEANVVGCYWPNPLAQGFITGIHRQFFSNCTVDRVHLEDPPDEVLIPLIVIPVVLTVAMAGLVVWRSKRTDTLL
- assay: cell-based or functional assay
Numbered stars: 1 amine (or outer) side, 2 acyl side, 3 side chain; on linkers, the order of the positions; unused ones are H or OH. Square brackets hold non-standard residues; d marks the D form. Side chains are listed from the residue outwards. * marks the point of attachment. C20 diacid = O=C(O)CCCCCCCCCCCCCCCCCCC(=O)*; γGlu = O=C(O)[C@H](CCC(=O)[*:2])N[*:1]; Chem. 28 = not defined here; AEEA = NCCOCCOCC(=O)O; Aib = CC(C)(N)C(=O)O
parameter: hAMYR3 Potency, 1% HSA, EC50 [pM] (pM)
Please reply with the bare figure in pM and do not write the unit itself.

Check out these entries, answers already filled in.
INSERT INTO assay_data (binder, reported_result) VALUES
  ('Compound 48 (reading uncertain) peptide: Y[Aib]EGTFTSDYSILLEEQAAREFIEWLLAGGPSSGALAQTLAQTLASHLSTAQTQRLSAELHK(Chem. 28)LATLPRTETGSGSP-NH2', 78.5),
  ('Compound 60 (peptide) peptide: Y[Aib]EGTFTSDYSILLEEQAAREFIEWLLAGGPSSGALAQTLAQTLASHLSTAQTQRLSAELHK([AEEA-AEEA-γGlu-C20 diacid])LATLPRTETGSGSP-NH2', 191),
  ('Compound 45 (reading uncertain) peptide: H[Aib]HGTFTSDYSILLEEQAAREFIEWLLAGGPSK(Chem. 28)GALAQTLGTNEASHLSTAQTQRLSAELHELATLPRTETGSGSP-NH2', 62.4);

Read the entry Compound 52 (reading uncertain) peptide: Y[Aib]EGTFTSDYSILLEEQAAREFIEWLLAGGPSSGAGQAPGQAPGASHLSTAQTQRLSAELHK(Chem. 28)LATLPRTETGSGSP-NH2 and write its reported hAMYR3 Potency, 1% HSA, EC50 [pM].
119

Given the binder Compound 76 (peptide) peptide: Y[Aib]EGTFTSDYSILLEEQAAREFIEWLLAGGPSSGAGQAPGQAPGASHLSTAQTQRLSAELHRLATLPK([AEEA-AEEA-γGlu-C20 diacid])TETGSGSP-NH2 , write its reported hAMYR3 Potency, 1% HSA, EC50 [pM].
430

Quickly give me recorded hAMYR3 Potency, 1% HSA, EC50 [pM] for Compound 110 (not fully specified) peptide: Y[Aib]EGTFTSDYSILLEEQAAREFIEWLLAGGPSSGAPPPSGGGEASHLSTAQTQRLSAK([AEEA-AEEA-γGlu-C20 diacid])LHRLATLPRTETGSGSP-NH2
94

Report hAMYR3 Potency, 1% HSA, EC50 [pM] for Compound 106 (reading uncertain) peptide: H[Aib]HGTFTSDYSILLEEQAAREFIEWLLAGGPSSGALQAPGQAPGASHLSTAQTARLSAELHRLK(Chem. 28)TLPRTETGSGSP-NH2
31.2
